Assay: qHTS assay for identifying genotoxic compounds that show differential cytotoxicity against isogenic chicken DT40 cell lines with known DNA damage response pathways - wild type cell line (AID 743012); note: nearly all actives have a fitted effect of over 60% in size
Settings: DT40 wild type chicken cells viability, CellTiter-Glo, 40 h; series mostly up to 68.4 µM
Source text: U.S. Tox21 Program National Center for Advancing Translational Sciences [NCATS] NIH Chemical Genomics Center [NCGC] U.S. Environmental Protection Agency [EPA] National Institutes of Environmental Health Sciences [NIEHS] National Toxicology Program [NTP] U.S. Food and Drug Administration [FDA] Tox21 Assay Overview: DNA repair pathways play a critical role in cellular homeostasis by repairing DNA damage induced by endogenous processes and xenobiotics. […]
Records with an inconclusive call do not appear. The source made the active and inactive calls. Calls come from the whole dose curve; as a rule, active = well fitted cell-killing curve with a large enough effect in the repeat runs; inconclusive = weak or mixed curves, or effect the other way; inactive = no such curve, though single readings can be large or run the other way. Positions of bridges follow the written chain, without caps; N, C: chain ends. Non-standard residues stand in square brackets, D forms with d. Residues, ends and D or L forms follow the SMILES beside them. *: point of attachment. X2 = CC[C@H](C)CCCCC(=O)*; Dab = NCC[C@H](N)C(=O)O
Result category, one only: 1 for active, 0 for inactive

Query block: Give the logged outcome of this assay for the following compound: CCCCCCCCCCCC(=O)OC[C@@H](O)C1OC[C@H](O)[C@H]1O (some centres undefined)
Result block: 0

Query block: Please let me know the test result on file for `CCCCCCCCCCCCCCCC(=O)O[C@@H]1[C@@H](O)[C@@H](O)[C@@H]([C@H](NC(=O)[C@@H]2C[C@@H](CCC)CN2C)[C@H](C)Cl)O[C@@H]1SC` .
Result block: 0

Query block: What did this assay record as the result for `Cc1cc(C)c(NC(=O)C[C@H](CC(=O)O)c2cccc3ccccc23)c(C(=O)N2CCC3(CCCC3)CC2)c1` ?
Result block: 0

Query block: Write down the call the test reported for this compound. Item: `COc1ccc2c(c1)N(C[C@H](C)CN(C)C)c1ccccc1S2`
Result block: 1

Query block: // return assay outcome for `NCCCC[C@H](N)C(=O)O`
Result block: 0

Query block: Per the assay record, what outcome was assigned to `CO/N=C(\C(=O)N[C@@H]1C(=O)N2C(C(=O)O)=CCS[C@H]12)c1csc(N)n1` ?
Result block: 0

Query block: For `CCCCCCOc1ccc(C(=N)N(CCCC)CCCC)c2ccccc12` , what call appears in the results of this test?
Result block: 1

Query block: What was the test verdict on CC(C)(C)NCC(O)c1ccc(O)c(CO)n1 (centres undefined) ?
Result block: 0

Query block: # outcome recorded in this test, key = `Cc1ncc(COP(=O)(O)O)c(CN)c1O`
Result block: 0

Query block: Per the records of this test, what outcome belongs to `CCOC(=O)Oc1c(OC)cc(C(=O)O[C@@H]2C[C@@H]3CN4CCc5c([nH]c6cc(OC)ccc56)[C@H]4C[C@@H]3[C@H](C(=O)OC)[C@H]2OC)cc1OC` ?
Result block: 1

Query block: In this assay, the call recorded for `C=CCSSSCC=C` was what?
Result block: 0

Query block: Per the assay record, what outcome was assigned to `COc1c(O[C@@H]2O[C@H](CO)[C@@H](O)[C@H](O)[C@H]2O)cc2c(c1OC)-c1ccc(SC)c(=O)cc1[C@@H](NC(C)=O)CC2` ?
Result block: 0

Query block: Test call for this compound, please: `O=C1NCCN1c1ncc([N+](=O)[O-])s1`
Result block: 0

Query block: Given `CCCC(=O)O[C@]1(C(=O)COC(=O)CC)[C@@H](C)C[C@H]2[C@@H]3CCC4=CC(=O)C=C[C@]4(C)[C@@]3(F)[C@@H](O)C[C@@]21C` , state the outcome it received in this test.
Result block: 1

Query block: Test call for this compound, please: COc1cc([C@@H]2c3cc4c(cc3C(O[C@@H]3O[C@@H]5COC(c6cccs6)O[C@H]5[C@H](O)[C@H]3O)C3COC(=O)[C@@H]32)OCO4)cc(OC)c1O (some centres undefined)
Result block: 1

Query block: Could you check what this test reported for `FC(F)(F)C(F)(F)C(F)(F)C(F)(F)C(F)(F)C(F)(F)F` ?
Result block: 0

Query block: Please let me know the test result on file for CC[C@]1(O)CC2CN(CCc3c([nH]c4ccccc34)[C@@](C(=O)OC)(c3cc4c(cc3OC)N(C)[C@H]3[C@@](O)(C(N)=O)[C@H](O)[C@]5(CC)C=CCN6CC[C@]43[C@@H]65)C2)C1 (some centres undefined) .
Result block: 1

Query block: Returns: the outcome recorded for CC[C@H](C)CCCCC(=O)N[C@@H](CCN)C(=O)N[C@H](C(=O)N[C@@H](CCN)C(=O)N[C@H]1CCNC(=O)[C@H]([C@@H](C)O)NC(=O)[C@H](CCN)NC(=O)[C@H](CCN)NC(=O)[C@H](CC(C)C)NC(=O)[C@@H](CC(C)C)NC(=O)[C@H](CCN)NC1=O)[C@@H](C)O (X2-[Dab]T[Dab][Dab][Dab][dL]L[Dab][Dab]T; lactam 4-C) in this assay.
Result block: 0

Query block: Please share the test call associated with `Nc1ncnc2c1ncn2[C@@H]1O[C@H](COP(=O)(O)OP(=O)(O)OP(=O)(O)O)[C@@H](O)[C@H]1O` .
Result block: 0

Query block: Write down the call the test reported for this compound. Item: `NC(=O)Oc1ccc(Cc2ccccc2)cc1`
Result block: 0

Query block: In this assay, the call recorded for `C/C(=C(\CCOC(=O)c1ccccc1)SS/C(CCOC(=O)c1ccccc1)=C(/C)N(C=O)Cc1cnc(C)nc1N)N(C=O)Cc1cnc(C)nc1N` was what?
Result block: 1

Query block: Outcome? `NC(=S)N=Nc1ccc(NN=C(N)N)cc1`
Result block: 1

Query block: Write down the call the test reported for this compound. Item: CCC(C)C(C(=O)OCC[N+](C)(CC)CC)c1ccccc1 (centres undefined)
Result block: 1

Query block: Outcome logged for `c1ccc2c(CCC3CCNCC3)c[nH]c2c1` in this assay:
Result block: 1

Query block: Per the assay record, what outcome was assigned to CC1=C(C(=O)OCCN(Cc2ccccc2)c2ccccc2)C(c2cccc([N+](=O)[O-])c2)C(P2(=O)OCC(C)(C)CO2)=C(C)N1 (centres undefined) ?
Result block: 1

Query block: For CN1[C@@H]2CCC[C@H]1CC(NC(=O)c1nn(C)c3ccccc13)C2 (some centres undefined) , what call appears in the results of this test?
Result block: 0

Query block: Test call for this compound, please: COc1ccc(C2(C#N)CCC(C(=O)O)CC2)cc1OC1CCCC1 (centres undefined)
Result block: 0

Query block: Call for entry `CC(C)[C@@H]1CC[C@@H](C)C[C@H]1OC(=O)c1ccccc1O` :
Result block: 0

Query block: What classification did `CO/N=C(\C(=O)N[C@@H]1C(=O)N2C(C(=O)OCOC(=O)C(C)(C)C)=C(/C=C\c3scnc3C)CS[C@H]12)c1csc(N)n1` end up with in this test?
Result block: 0

Query block: What classification did `O=C(Cn1c(=O)sc2ccc(Cl)cc21)N1CCN(CCO)CC1` end up with in this test?
Result block: 0

Query block: Recorded test call requested for `NCc1ccccc1CC(=O)N[C@@H]1C(=O)N2C(C(=O)O)=C(CSc3nnnn3CC(=O)O)CS[C@H]12`
Result block: 0

Query block: What did this assay record as the result for `CCCCC[C@H](O)/C=C/[C@@H]1[C@H]2C/C(=C/CCCC(=O)O)O[C@H]2C[C@H]1O` ?
Result block: 0

Query block: Assay outcome for `CC(=O)Oc1cccc(C(=O)O)c1OC(C)=O` : what was it?
Result block: 0

Query block: Per the assay record, what outcome was assigned to `Cc1c(Cl)cccc1Nc1ncccc1C(=O)O` ?
Result block: 0
